Assay summary: Evaluation of metabolic stability in human liver microsomes
Format: in vitro ADME
Protocol conditions: human, human liver microsomes, pH 7.4, human liver microsomes 0.5 mg/mL, 1 μM test compound, 2 mM NADPH, 37° C., 0-30 minutes; Experiment 1; read-out: t1/2 (minutes) Experiment 1
Measurement kind: half-life at 1 μM (min)

Illustrative cases are given below, each with its answer.
molecule=[2H]C([2H])([2H])C([2H])(N(CC[C@H](c1ccccc1)c1cc(C)ccc1O)C([2H])(C([2H])([2H])[2H])C([2H])([2H])[2H])C([2H])([2H])[2H] result_value=14.6
molecule=[2H]C([2H])([2H])c1ccc(O)c([C@H](CCN(C([2H])(C([2H])([2H])[2H])C([2H])([2H])[2H])C([2H])(C([2H])([2H])[2H])C([2H])([2H])[2H])c2ccccc2)c1 result_value=23.5

P. Cc1ccc(O)c(C(CCN(C(C)C)C(C)C)c2ccccc2)c1 (stereo not shown) [Tolterodine, reference compound]
Q. [2H]C([2H])([2H])c1ccc(O)c([C@H](CCN(C(C)C)C(C)C)c2ccccc2)c1
Q: Of P and Q , whose reported half-life at 1 μM is the larger number? Lab note: record the label of whichever item you select.
Result: Q
(Q: 24.3 min, P: 13.4 min)

* * *

Assay summary: Evaluation of metabolic stability in human liver microsomes
Assay type: in vitro ADME
Protocol conditions: human, human liver microsomes, pH 7.4, average of Experiment 1 and 2, human liver microsomes; read-out: Ave t1/2
Measurement kind: half-life at 1 μM (min)

Illustrative cases are given below, each with its answer.
compound=[2H]C([2H])([2H])c1ccc(O)c([C@H](CCN(C([2H])(C([2H])([2H])[2H])C([2H])([2H])[2H])C([2H])(C([2H])([2H])[2H])C([2H])([2H])[2H])c2ccccc2)c1 measurement_kind="half-life at 1 μM" result_value=25.8
compound=[2H]C([2H])([2H])C([2H])(N(CC[C@H](c1ccccc1)c1cc(C)ccc1O)C([2H])(C([2H])([2H])[2H])C([2H])([2H])[2H])C([2H])([2H])[2H] measurement_kind="half-life at 1 μM" result_value=15.1

a. [2H]C([2H])([2H])c1ccc(O)c([C@H](CCN(C(C)C)C(C)C)c2ccccc2)c1
b. Cc1ccc(O)c(C(CCN(C(C)C)C(C)C)c2ccccc2)c1 (stereo not shown) [Tolterodine, reference compound]
Q: Sorting ascending by half-life at 1 μM, which comes first: a or b ? Lab note: record the label of whichever item you select.
Result: b
(b: 13.8 min, a: 26.6 min)

Data origin, for the record: patent US20110152227A1
